Could you please report measured pIC50 for the items listed next?
- Test system: MDA-MB-435
- protocol.text: Cytotoxicity against human MDA-MB-435 cells incubated for 72 hrs by MTT assay
- Type: functional, cell-based
- run.conditions: MDA-MB-435, 72 h
pIC50 here: minus log base 10 of the concentration, concentration in moles per litre.

Entry `COc1cccc(CNC(=O)c2nc(Br)c3cccnc3c2N[C@H]2CC[C@H](N)CC2)c1` : reported pIC50 = ?
5.15

I am curious: what pIC50 value has been reported for `N[C@H]1CC[C@H](NC(=O)c2nc(Br)c3cccnc3c2NCc2ccc(F)cc2)CC1` ?
5.18

State the recorded pIC50 for this entry: `N[C@H]1CC[C@H](Nc2c(C(=O)NCc3ccc(F)cc3)nc(N3CCCCC3)c3cccnc23)CC1`
5.30
